Values compiled from paper PMC5374622.

assay_notes: Proteolytic enzyme stability assay, pepsin
Format: in vitro ADME
condition_notes: isolated enzyme pepsin, 100 mM sodium citrate pH 4.5, 37 °C, peptide:enzyme 20:1 (w/w), RP-UPLC area under the curve, MALDI-TOF MS, read-out: peptide remained intact after pepsin treatment
Positions of bridges follow the written chain, without caps; N, C: chain ends. Non-standard residues stand in square brackets, D forms with d. No end group written: not given here. pGlu = O=C1CC[C@@H](C(=O)O)N1

- substance: "[pGlu]NCGRQAGNRACANQLCCSQYGFCGSTSEYCSRANGCQSNCRG (disulfide 3-18, 12-24, 17-31, 37-41) [mO1]"
  remaining at 6 h: "> 95%"
